B1: FBXO3 (parent)
chain: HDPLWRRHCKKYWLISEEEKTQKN

variants of: B1; assay: protein stability index of a GFP-peptide fusion (GPS, HEK-293T) (PSI 1-6); higher = more stable; details: c terminus: a fixed tail appended;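 also: lentivirally expressed fusions sorted by FACS into six bins by GFP to DsRed ratio, PSI derived from sequencing read proportions per bin multiplied by bin number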
attribute measured: protein stability index
One number for each entry.

Batch request: protein stability index per item, same order as input.
1. HDPLWRRHCKKYWLISEEEMTQKN [K20M]
2. HDPLWRRHCKKYWLIMEEEKTQKN [S16M]

3.03
2.99

Batch request: protein stability index per item, same order as input.
1. HDPLWRRHAKKYWLISEEEKTQKN [C9A]
2. HDPLWRRHCKKYWLISEEEKTQKC [N24C]
3. HDPLWRRHCKKYWLISEEEKTQKE [N24E]
4. HDPLWRRHCKKRWLISEEEKTQKN [Y12R]
5. HDILWRRHCKKYWLISEEEKTQKN [P3I]
6. HDPLWRRHCKKYWLISEEESTQKN [K20S]
7. HDCLWRRHCKKYWLISEEEKTQKN [P3C]
8. HDPLWRRHCKKIWLISEEEKTQKN [Y12I]

1: 3.57; 2: 2.73; 3: 3.12; 4: 3.59; 5: 3.08; 6: 3.2; 7: 3.02; 8: 3.48
